Listed molecules paired with reported Kornzahl der Ähre im Isolator
System: diploidem Roggen Kharkovskaya 55
test_description: Field test of gametocidal activity, diploid rye Kharkovskaya 55
Assay type: in vivo
test_context: Kharkovskaya 55; period V; 1% aqueous emulsion; 6 kg/ha in 600 l water

Example molecules with recorded Kornzahl der Ähre im Isolator:
> print(dat)
                                   molecule             measured.attribute  result
1  CCCCC(Br)CC(Br)(Br)Br (stereo not drawn)  Kornzahl der Ähre im Isolator     0,0
2            ClCC(Br)CBr (stereo not drawn)  Kornzahl der Ähre im Isolator     0,0

Let us examine a further case.
Ask | Quick check: Kornzahl der Ähre im Isolator of BrCC(Br)CBr ?
Reply | 0,6

---

Listed compounds paired with reported Prozentsatz des Ansetzens von Samen bei freier Bestäubung
System: diploidem Roggen Gibrid 1864/79
test_description: Field test of gametocidal activity, diploid rye Gibrid 1864/79
Type: in vivo
test_context: period V, 1% aqueous emulsion, 6 kg/ha in 600 l water, control = 100

Example compounds with recorded Prozentsatz des Ansetzens von Samen bei freier Bestäubung:
> print(dat)
                                   compound  result
1  CC(Br)CBr (stereo not shown) [Beispiel 5, 1,2-Dibrompropan]   97,1%
2  CCCCC(Br)CC(Br)(Br)Br (stereo not shown) [Beispiel 9, 1,1,1,3-Tetrabromheptan]  103,0%
3  BrCC(Br)CBr [Beispiel 4, 1,2,3-Tribrompropan]   88,0%

Ask | Checklist item: Prozentsatz des Ansetzens von Samen bei freier Bestäubung tested on diploidem Roggen Gibrid 1864/79, entry CCCCC(Br)CC(Br)Br (stereo not shown) [Beispiel 10, 1,1,3-Tribromheptan] , value?
Reply | 109,8%

---

System: Sommerweizens Sorte Moskowskaya 35
test_description: Field test of gametocidal activity, spring wheat Moskowskaya 35
Type: in vivo, Weizen
test_context: read-out: Prozentsatz der Sterilität
Listed compounds paired with reported pest or weed control at 6000 g/ha
The answer is to be given in %; state only the numeric part.

Example compounds with recorded pest or weed control at 6000 g/ha:
> print(dat)
                                   compound                 measured.attribute  measured.number
1              CC(Br)CBr (stereo not drawn)  pest or weed control at 6000 g/ha              100
2                                   BrCCCBr  pest or weed control at 6000 g/ha              100
3        BrCC(Br)C(Br)Br (stereo not drawn)  pest or weed control at 6000 g/ha             99.1
4  CCCCC(Br)CC(Br)(Br)Br (stereo not drawn)  pest or weed control at 6000 g/ha             99.9
5                               BrCC(Br)CBr  pest or weed control at 6000 g/ha              100

Ask | Checklist item: pest or weed control at 6000 g/ha tested on Sommerweizens Sorte Moskowskaya 35, entry ClCC(Br)CC(Br)Br (stereo not drawn) , value?
Reply | 99.2

---

System: diploidem Roggen Kharkovskaya 55
test_description: Field test of gametocidal activity, diploid rye Kharkovskaya 55
Assay type: in vivo
test_context: Kharkovskaya 55; period V; 1% aqueous emulsion; 6 kg/ha in 600 l water
Listed compounds paired with reported Kornzahl der Ähre bei freier Bestäubung

Example compounds with recorded Kornzahl der Ähre bei freier Bestäubung:
> print(dat)
                                   compound                      assay.target                       measured.attribute  result
1              CC(Br)CBr (centres unmarked)  diploidem Roggen Kharkovskaya 55  Kornzahl der Ähre bei freier Bestäubung    42,8
2                               BrCC(Br)CBr  diploidem Roggen Kharkovskaya 55  Kornzahl der Ähre bei freier Bestäubung    40,5
3        ClC(Br)CC(Br)Br (centres unmarked)  diploidem Roggen Kharkovskaya 55  Kornzahl der Ähre bei freier Bestäubung    41,7
4            ClCC(Br)CBr (centres unmarked)  diploidem Roggen Kharkovskaya 55  Kornzahl der Ähre bei freier Bestäubung    39,5
5      CCCCC(Br)CC(Br)Br (centres unmarked)  diploidem Roggen Kharkovskaya 55  Kornzahl der Ähre bei freier Bestäubung    36,2
6  CCCCC(Br)CC(Br)(Br)Br (centres unmarked)  diploidem Roggen Kharkovskaya 55  Kornzahl der Ähre bei freier Bestäubung    37,1
7          CCCCCC(Br)CBr (centres unmarked)  diploidem Roggen Kharkovskaya 55  Kornzahl der Ähre bei freier Bestäubung    34,0

Let us examine a further case.
Ask | Quick check: Kornzahl der Ähre bei freier Bestäubung of BrCCC(Br)Br ?
Reply | 43,1
